# Measured Target: rat MCH-1 (Rattus norvegicus)
# Sequence (P97639 whole entry): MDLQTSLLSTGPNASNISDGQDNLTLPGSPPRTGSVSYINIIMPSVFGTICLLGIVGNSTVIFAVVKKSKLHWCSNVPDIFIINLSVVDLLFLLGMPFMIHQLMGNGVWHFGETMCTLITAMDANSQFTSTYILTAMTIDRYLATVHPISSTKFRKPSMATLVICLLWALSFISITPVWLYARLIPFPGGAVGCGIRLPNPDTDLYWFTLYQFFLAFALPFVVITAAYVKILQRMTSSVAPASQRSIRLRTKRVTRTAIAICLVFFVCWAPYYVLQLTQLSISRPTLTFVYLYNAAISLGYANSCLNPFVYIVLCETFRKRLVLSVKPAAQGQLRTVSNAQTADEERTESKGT
# Run Description: Radioligand binding assay at cloned rat MCH1 receptor ([3H] Compound A)
# Design: host or cells: Peak rapid 293 (Peakr293) cells, transient calcium phosphate transfection, membranes
# Measurement Context: cloned rat MCH1 receptor; 0.08 nM [3H] Compound A; Peakr293 cell membranes; read-out: Ki (nM) rMCH1
Please go through the items and note down their Ki.
Entry rule: numbers only, all in nM.

Form: molecule = "O=C(CCCCN1CCC(c2cccc(NC(=O)C3CC3)c2)CC1)c1ccc(F)cc1" ; Ki = 21.6

Form: molecule = "CC(C)C(=O)Nc1cccc(C2CCN(CCCc3c(-c4ccc(F)cc4)[nH]c4c3ccc3ccccc34)CC2)c1" ; Ki = 4.7

Form: molecule = "CCC(=O)Nc1cccc(C2CCN(Cc3cn(-c4ccccc4)c4ccccc34)CC2)c1" ; Ki = 84.1

Form: molecule = "Cc1ccc2c(CN3CCC(c4cccc(NC(=O)C(C)C)c4)CC3)cn(-c3ccccc3)c2c1" ; Ki = 6.5
